These data points were gathered from ChEMBL document CHEMBL2424587.

Overview of recorded pIC50 for various molecules
# System: U-937
# test-details: Cytotoxicity against human U937 cells after 72 hrs by MTT assay
# Assay type: functional, cell-based
# condition-info: U-937, 72 h
pIC50: −log10 of the molar value.

The following molecules have reported results that may help.
{"structure": "COC(=O)/C=C(\\C)C[C@@H](OC(C)=O)[C@@]1(C)[C@H](C)CC=C2[C@@H]1CCCC2(C)C", "test-value": "< 4.52"}
{"structure": "COc1ccc(C(=O)OC/C=C(\\C)C[C@@H](O)[C@@]2(C)[C@H](C)CC=C3[C@@H]2CCCC3(C)C)cc1", "test-value": "< 4.52"}

Tell me the measured pIC50 of `C/C(=C\COC(=O)c1ccccc1)C[C@@H](O)[C@@]1(C)[C@H](C)CC=C2[C@@H]1CCCC2(C)C` , please. < 4.52
